Source: patent US20100136009A1

Molecular target: T1, native Ovr110 protein on tumor cells (ZR-75-1, SKBR3, RL95.2, OVCAR3) (human, UniProt Q7Z7D3 25-282)
T1 construct: whole, on cells; Endogenous protein of Ovr110-positive tumor cell lines; also called B7-H4; B7x
T1 sequence (looked up): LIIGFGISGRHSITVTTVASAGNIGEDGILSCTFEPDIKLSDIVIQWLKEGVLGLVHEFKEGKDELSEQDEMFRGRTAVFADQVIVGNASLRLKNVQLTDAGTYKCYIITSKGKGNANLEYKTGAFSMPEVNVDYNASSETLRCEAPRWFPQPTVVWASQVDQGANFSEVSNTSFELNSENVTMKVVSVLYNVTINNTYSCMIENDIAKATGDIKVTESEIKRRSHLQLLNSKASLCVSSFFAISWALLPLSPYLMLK
Test: flow cytometry; purified MAb; ZR-75-1 cells
Listed below: MFI values for each entry.
// print number alone

Would you please look over these solved cases?
binder: Ovr110.Q12 (antibody, IgG1, V domains shown, Mouse hybridoma MAb; also called Q12.2; Ovr110.Q12.2) VH: QVQLQQPGAELVKPGATVKLSCKTSGYTFTSYWMHWVKQRPGQGLEWIGEIDPSDSYTNYNQKFKGKATLTVDTSSTTAYMQLSSLTSEDSAVYYCAREYGNNDAMDYWGQGTSVTVSS VL: QIVLTQSPAIMSASPGEKVTMTCSASSGISYMHWYQQKPGTTPKRWIYDASKLASGVPSRFSGSGSGTSYSLTISSMEAEDAATYYCHQRRSYPFTFGSGTKLEIKR
quantity name: MFI
recorded value: 3.76
//
binder: Ovr110.Q19 (antibody, IgG1, V domains shown, Mouse hybridoma MAb; also called Q19.6; Ovr110.Q19.6) VH: DVLLQESGPGLVKASQSLSLTCSVTGYSITSGYFWNWIRQFPGNKLEWMGYISYDGGNSYNPSLKNRISITRDTSKNQFFLRMKSVTAEDTATYYCARKALWLRFDYWGQGTTLTVSS VL: EIVLTQSPAIMSVYLGEKVTMTCSASLSVSYMHWYQQKSSTSPKLWIYDTSKVASGVPGRFSGSGSGNSYSLTISSMEAEDVATYYCFQGSGYPFTFGSGTKLEIKR
quantity name: MFI
recorded value: 4.11
//
binder: Ovr110.Q27 (antibody, IgG1, V domains shown, Mouse hybridoma MAb; also called Q27.4; Q27.2) VH: QVQPQQSGAELARPGASVKLSCKASGYTFTTYWMQWVKQRPGQGLEWIGAIYPGDGDTRYTQKFKGKATLTADKSSSTAYMQLSSLASEDSAVYYCAINWGYAMDYWGQGTSVTVSS VL: DIVLTQSHKIMSTSVGDRVSITCKASQDVRTAVAWYQQKPGQSPKLLIKSASYRYTGVPDRFSGSGSGTDFTFTISSVQAEDLAVYYCQQHYSNPTFGGGTKLEIKR
quantity name: MFI
recorded value: 2.92

Lookup: Item under review: Ovr110.Q11 (antibody, V domains shown, Mouse hybridoma MAb; also called Q11.12.3; Ovr110.Q11.12.3) VH: DVQLQESGPGLVKPSQSLSLTCSVTGYSITSGYFWSWIRQFPGNKLEWMGFISYDGTNSYNPSLKNRISITRDTSKNQFFLRLNSVTKEDTATYYCARKLLWLRFDYWGQGTTLTVSS VL: ENVLTQSPAIMSASPGEKVTMTCSASSSVSYMHWYQQKSSTSPKLWIYDTSKLASGVPGRFSGSGSGNSYSLTISSMEAEDVATYYCFQGSGYPFTFGSGTKLEIKR . Reported MFI?
Found: 4.68
